Numbers sourced from the supplement of paper PMC7877785.

# ASSAY_SUMMARY: self-splicing fitness, log relative to wild type (ln ratio); higher = more splicing; Tetrahymena group I intron in knt gene, E. coli kanamycin selection, DiMSum; sequences stand for … in CUCUCU…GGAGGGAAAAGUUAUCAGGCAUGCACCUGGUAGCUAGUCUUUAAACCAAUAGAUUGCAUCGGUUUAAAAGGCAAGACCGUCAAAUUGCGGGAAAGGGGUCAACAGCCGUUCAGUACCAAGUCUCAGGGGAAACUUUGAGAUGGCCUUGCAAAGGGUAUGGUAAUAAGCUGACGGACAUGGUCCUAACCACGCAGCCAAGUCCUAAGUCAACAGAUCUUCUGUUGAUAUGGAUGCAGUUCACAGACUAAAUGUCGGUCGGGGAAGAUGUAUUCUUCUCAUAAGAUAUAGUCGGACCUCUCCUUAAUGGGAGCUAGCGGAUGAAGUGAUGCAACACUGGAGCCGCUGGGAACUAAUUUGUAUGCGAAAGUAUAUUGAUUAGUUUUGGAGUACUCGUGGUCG;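 note: selection with 25 µg/mL kanamycin versus none on LB agar overnight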
# CONDITIONS: 30 °C
Reported self-splicing fitness (ln) values for the following sequences.

{"CHAIN_SEQUENCE": "AAAGAGCAAUAUUACGUGCG", "self-splicing fitness (ln)": -2.69}
{"CHAIN_SEQUENCE": "CGUAAGCAAUAUUACGGGAU", "self-splicing fitness (ln)": -3.63}
{"CHAIN_SEQUENCE": "UAGAAGCAAUAUUACGAAGA", "self-splicing fitness (ln)": -1.77}
{"CHAIN_SEQUENCE": "UCAAAGCAAUAUUACGCUGU", "self-splicing fitness (ln)": -3.7}
{"CHAIN_SEQUENCE": "ACCGAGCAAUAUUACGAGCU", "self-splicing fitness (ln)": -2.94}
{"CHAIN_SEQUENCE": "AGUCAGCAAUAUUACGCAGA", "self-splicing fitness (ln)": -1.64}
{"CHAIN_SEQUENCE": "UCGUAGCAAUAUUACGGGAA", "self-splicing fitness (ln)": -1.71}
{"CHAIN_SEQUENCE": "CCUAAGCAAUAUUACGUGCA", "self-splicing fitness (ln)": -3.34}

----------
# ASSAY_SUMMARY: self-splicing fitness, log relative to wild type (ln ratio); higher = more splicing; Tetrahymena group I intron in knt gene, E. coli kanamycin selection, DiMSum; sequences stand for … in CUCUCU…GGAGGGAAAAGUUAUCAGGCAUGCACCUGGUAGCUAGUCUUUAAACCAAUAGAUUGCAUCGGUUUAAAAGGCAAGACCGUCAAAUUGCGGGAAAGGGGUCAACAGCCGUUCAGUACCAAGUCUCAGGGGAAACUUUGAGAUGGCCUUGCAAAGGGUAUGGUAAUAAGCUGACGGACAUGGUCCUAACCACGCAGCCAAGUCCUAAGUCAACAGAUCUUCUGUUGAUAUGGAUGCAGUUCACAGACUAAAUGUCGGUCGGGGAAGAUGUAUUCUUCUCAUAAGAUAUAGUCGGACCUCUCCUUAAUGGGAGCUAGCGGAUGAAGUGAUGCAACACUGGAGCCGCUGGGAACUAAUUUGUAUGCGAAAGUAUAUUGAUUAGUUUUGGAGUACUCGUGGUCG
# CONDITIONS: 37 °C
OBSERVABLE: self-splicing fitness (ln)

{"CHAIN_SEQUENCE": "AAUGAGCAAUAUUACGCUAU", "VALUE_REPORTED": -1}
{"CHAIN_SEQUENCE": "UGUGAGCAAUAUUACGCUAA", "VALUE_REPORTED": -2.04}
{"CHAIN_SEQUENCE": "AGGCAGCAAUAUUACGAUGU", "VALUE_REPORTED": -0.487}
{"CHAIN_SEQUENCE": "UGGUAGCAAUAUUACGGCAA", "VALUE_REPORTED": 0.277}
{"CHAIN_SEQUENCE": "CACAAGCAAUAUUACGGUCU", "VALUE_REPORTED": -1.99}
{"CHAIN_SEQUENCE": "GCCCAGCAAUAUUACGAACC", "VALUE_REPORTED": 0.156}
{"CHAIN_SEQUENCE": "CGGUAGCAAUAUUACGACGU", "VALUE_REPORTED": -1.08}
{"CHAIN_SEQUENCE": "AGUCAGCAAUAUUACGGGAA", "VALUE_REPORTED": -2.4}
{"CHAIN_SEQUENCE": "UAAAAGCAAUAUUACGGCCA", "VALUE_REPORTED": 0.573}
{"CHAIN_SEQUENCE": "AUCGAGCAAUAUUACGCGAG", "VALUE_REPORTED": -1.4}
{"CHAIN_SEQUENCE": "UUAGAGCAAUAUUACGGUGU", "VALUE_REPORTED": -2.19}
{"CHAIN_SEQUENCE": "ACGCAGCAAUAUUACGACAG", "VALUE_REPORTED": -0.445}
{"CHAIN_SEQUENCE": "GCGAAGCAAUAUUACGAUCG", "VALUE_REPORTED": -0.964}
{"CHAIN_SEQUENCE": "GGAGAGCAAUAUUACGUGAA", "VALUE_REPORTED": -2.2}
{"CHAIN_SEQUENCE": "CGACAGCAAUAUUACGCAUC", "VALUE_REPORTED": -2.75}
{"CHAIN_SEQUENCE": "CCGCAGCAAUAUUACGGUUA", "VALUE_REPORTED": -2.26}
{"CHAIN_SEQUENCE": "ACACAGCAAUAUUACGGCGU", "VALUE_REPORTED": -0.414}
{"CHAIN_SEQUENCE": "UCUGAGCAAUAUUACGUUAU", "VALUE_REPORTED": -3.68}
{"CHAIN_SEQUENCE": "GAGCAGCAAUAUUACGUGCC", "VALUE_REPORTED": -1.34}
{"CHAIN_SEQUENCE": "GGCCAGCAAUAUUACGGGGU", "VALUE_REPORTED": -3.21}
{"CHAIN_SEQUENCE": "GCUAAGCAAUAUUACGAACA", "VALUE_REPORTED": -0.907}
{"CHAIN_SEQUENCE": "UAUAAGCAAUAUUACGCUUU", "VALUE_REPORTED": -2.77}
{"CHAIN_SEQUENCE": "GAGGAGCAAUAUUACGCUCA", "VALUE_REPORTED": -0.181}
{"CHAIN_SEQUENCE": "GACCAGCAAUAUUACGCUUG", "VALUE_REPORTED": -0.56}
{"CHAIN_SEQUENCE": "CAGUAGCAAUAUUACGGCAC", "VALUE_REPORTED": -2.06}
{"CHAIN_SEQUENCE": "CAGCAGCAAUAUUACGAACA", "VALUE_REPORTED": -2.17}
{"CHAIN_SEQUENCE": "GUUAAGCAAUAUUACGCGUU", "VALUE_REPORTED": -1.07}
{"CHAIN_SEQUENCE": "AUCCAGCAAUAUUACGGGUG", "VALUE_REPORTED": -0.904}
{"CHAIN_SEQUENCE": "CUCCAGCAAUAUUACGCAGA", "VALUE_REPORTED": -1.94}
{"CHAIN_SEQUENCE": "ACCUAGCAAUAUUACGCACC", "VALUE_REPORTED": 0.276}
{"CHAIN_SEQUENCE": "GUGUAGCAAUAUUACGGCUG", "VALUE_REPORTED": -1.28}
{"CHAIN_SEQUENCE": "UCCGAGCAAUAUUACGUAAC", "VALUE_REPORTED": -0.912}
{"CHAIN_SEQUENCE": "UUCAAGCAAUAUUACGUGUA", "VALUE_REPORTED": -0.453}
{"CHAIN_SEQUENCE": "AAAUAGCAAUAUUACGGGGU", "VALUE_REPORTED": -2.12}

----------
# ASSAY_SUMMARY: self-splicing fitness, log relative to wild type (ln ratio); higher = more splicing; Tetrahymena group I intron in knt gene, E. coli kanamycin selection, DiMSum; sequences stand for … in CUCUCU…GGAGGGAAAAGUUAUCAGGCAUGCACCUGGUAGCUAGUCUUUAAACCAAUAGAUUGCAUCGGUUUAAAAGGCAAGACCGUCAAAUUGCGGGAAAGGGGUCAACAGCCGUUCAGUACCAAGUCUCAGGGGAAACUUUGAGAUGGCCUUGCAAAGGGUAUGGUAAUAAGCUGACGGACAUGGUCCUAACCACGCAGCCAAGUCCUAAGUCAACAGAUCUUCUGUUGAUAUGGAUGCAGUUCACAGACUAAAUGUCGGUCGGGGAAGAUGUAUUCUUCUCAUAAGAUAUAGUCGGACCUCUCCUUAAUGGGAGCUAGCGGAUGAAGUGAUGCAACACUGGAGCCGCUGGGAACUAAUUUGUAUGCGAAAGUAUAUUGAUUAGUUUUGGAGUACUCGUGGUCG
# CONDITIONS: 30 °C
Reported self-splicing fitness (ln) values for the following sequences.

{"CHAIN_SEQUENCE": "AAUUAGCAAUAUUACGGCCU", "self-splicing fitness (ln)": -0.324}
{"CHAIN_SEQUENCE": "CUUAAGCAAUAUUACGGGGA", "self-splicing fitness (ln)": -3.46}
{"CHAIN_SEQUENCE": "GCAAAGCAAUAUUACGCUAA", "self-splicing fitness (ln)": -2.19}
{"CHAIN_SEQUENCE": "CAUCAGCAAUAUUACGCCCG", "self-splicing fitness (ln)": -0.306}
{"CHAIN_SEQUENCE": "UGCCAGCAAUAUUACGAGAU", "self-splicing fitness (ln)": -3.75}
{"CHAIN_SEQUENCE": "AUGUAGCAAUAUUACGGCUC", "self-splicing fitness (ln)": 0.231}
{"CHAIN_SEQUENCE": "GGUAAGCAAUAUUACGCUAU", "self-splicing fitness (ln)": -2.53}
{"CHAIN_SEQUENCE": "GAGGAGCAAUAUUACGAGAG", "self-splicing fitness (ln)": -2.77}
